Cited source: BindingDB's records for doi:10.1074/jbc.M109.039511

- target_or_system: Acid phosphatase (Francisella tularensis subsp. tularensis (strain SCHU S4 / Schu 4), UniProt Q5NIC0)
- Sequence (Q5NIC0 whole entry): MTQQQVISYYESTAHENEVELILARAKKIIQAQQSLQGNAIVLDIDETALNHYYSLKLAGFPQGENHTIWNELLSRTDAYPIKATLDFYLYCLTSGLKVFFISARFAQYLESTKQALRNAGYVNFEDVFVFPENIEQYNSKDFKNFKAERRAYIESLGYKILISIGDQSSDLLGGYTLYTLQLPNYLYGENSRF
- assay_info: Inhibitor Screening Assay
Could you please mark criterion met for values of Ki below 10 µM and criterion not met for values at or above it?

compound="COc1ccc(CC2c3cc(OC)c(OC)cc3CC[N+]2(C)CCC(=O)OCCCCCOC(=O)CC[N+]2(C)CCc3cc(OC)c(OC)cc3C2Cc2ccc(OC)c(OC)c2)cc1OC (stereo not drawn)" group_label="criterion not met"
compound=O=c1c(O)c(-c2ccc(O)cc2)oc2cc(O)cc(O)c12 group_label="criterion not met"
compound=O=c1c(O)c(-c2cc(O)c(O)c(O)c2)oc2cc(O)cc(O)c12 group_label="criterion not met"
compound=OC[C@H](O)c1oc(O)c(O)c1O group_label="criterion not met"
compound=CCN(CC)CCNC(=O)c1ccc(N)cc1 group_label="criterion not met"
compound=CCCCCCCCCCCCCCCC[N+](C)(C)CCN(Cc1ccc(OC)cc1)c1ncccn1 group_label="criterion met"
compound="CC1(C)OC[C@@H]([C@H]2OC(=O)C(=O)C2O)O1 (stereo partly drawn) [(+)-5,6-O-Isopropylidene-L-ascorbic acid]" group_label="criterion met"
compound="O=C1OC(C(O)CO)=C(O)C1OP(=O)(O)O (stereo not drawn)" group_label="criterion met"
